The reported numbers originate from patent US20060154859A1.

Molecular target: T1, long form of human leptin receptor (human, UniProt P48357 22-1165)
T1 construct: whole, on cells; The radioreceptor assay used a homogenate of the transfected BAF/3 cells; The proliferation assay used live BAF/3 1442-CI 4 cells; also called LEPR; OB-R
T1 sequence (looked up): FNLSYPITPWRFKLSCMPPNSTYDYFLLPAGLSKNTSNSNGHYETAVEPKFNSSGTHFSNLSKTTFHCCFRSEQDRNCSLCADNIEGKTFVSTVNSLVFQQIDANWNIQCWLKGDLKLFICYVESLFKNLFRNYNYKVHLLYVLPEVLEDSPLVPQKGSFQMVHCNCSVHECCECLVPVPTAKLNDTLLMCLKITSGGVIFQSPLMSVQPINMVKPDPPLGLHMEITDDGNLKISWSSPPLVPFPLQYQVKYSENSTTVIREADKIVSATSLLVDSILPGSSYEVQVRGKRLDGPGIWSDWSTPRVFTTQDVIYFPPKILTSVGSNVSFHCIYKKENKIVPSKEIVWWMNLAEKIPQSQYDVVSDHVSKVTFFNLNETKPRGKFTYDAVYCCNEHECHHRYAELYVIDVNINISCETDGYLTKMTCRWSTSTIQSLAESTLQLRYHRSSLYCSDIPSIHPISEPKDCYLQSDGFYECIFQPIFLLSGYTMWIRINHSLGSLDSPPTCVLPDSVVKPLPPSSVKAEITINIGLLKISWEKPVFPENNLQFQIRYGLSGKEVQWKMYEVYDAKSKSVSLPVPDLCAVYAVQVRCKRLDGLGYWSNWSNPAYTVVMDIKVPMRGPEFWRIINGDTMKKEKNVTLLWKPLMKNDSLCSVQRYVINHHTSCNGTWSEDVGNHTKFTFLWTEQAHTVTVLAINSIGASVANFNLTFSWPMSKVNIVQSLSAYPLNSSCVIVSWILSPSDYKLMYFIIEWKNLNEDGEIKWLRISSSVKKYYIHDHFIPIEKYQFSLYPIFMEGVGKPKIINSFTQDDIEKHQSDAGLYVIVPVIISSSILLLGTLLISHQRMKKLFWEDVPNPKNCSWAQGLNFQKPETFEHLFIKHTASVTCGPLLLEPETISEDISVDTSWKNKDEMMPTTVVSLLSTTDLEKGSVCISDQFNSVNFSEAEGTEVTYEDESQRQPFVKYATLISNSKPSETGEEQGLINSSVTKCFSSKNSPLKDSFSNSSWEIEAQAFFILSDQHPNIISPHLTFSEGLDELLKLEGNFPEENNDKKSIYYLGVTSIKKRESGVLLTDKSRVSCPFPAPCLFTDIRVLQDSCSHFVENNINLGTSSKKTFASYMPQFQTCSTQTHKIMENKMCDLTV
Assay: radioreceptor competition assay against iodinated leptin, homogenate of BAF/3 cells with long form of human leptin receptor, average of two experiments
Measured metric: IC50 (nM)
Kindly provide the numeric value in nM only, without the unit symbol.

Binder	Units	Test result
human leptin L39A/D40A/F41A/I42A mutant (ligand, Expressed with an extra Met-Ala at the N-terminus, Met removed; also called L39A/D40A/F41A/I42A (human)) VPIQKVQDDTKTLIKTIVTRINDISHTQSVSSKQKVTGAAAAPGLHPILTLSKMDQTLAVYQQILTSMPSRNVIRISNDLENLRDLLHVLAFSKSCHLPWASGLETLDSLGGVLEASGYSTEVVALSRLQGSLQDMLWQLDLSPGC	nM	5.43
human leptin F41A/I42A mutant (ligand, Expressed with an extra Met-Ala at the N-terminus, Met removed; also called F41A/I42A (human)) VPIQKVQDDTKTLIKTIVTRINDISHTQSVSSKQKVTGLDAAPGLHPILTLSKMDQTLAVYQQILTSMPSRNVIRISNDLENLRDLLHVLAFSKSCHLPWASGLETLDSLGGVLEASGYSTEVVALSRLQGSLQDMLWQLDLSPGC	nM	6.82
human leptin L39A/D40A mutant (ligand, also called L39A/D40A (human)) VPIQKVQDDTKTLIKTIVTRINDISHTQSVSSKQKVTGAAFIPGLHPILTLSKMDQTLAVYQQILTSMPSRNVIRISNDLENLRDLLHVLAFSKSCHLPWASGLETLDSLGGVLEASGYSTEVVALSRLQGSLQDMLWQLDLSPGC	nM	4.16
ovine leptin L39A/D40A mutant (ligand, also called L39A/D40A (ovine)) VSIRKVQDDTKTLIKTIVTRINDISHTQSVSSKQRVTGAAFIPGLHPLLSLSKMDQTLAIYQQILASLPSRNVIQISNDLENLRDLLHLLAASKSCPLPQVRALESLESLGVVLEASLYSTEVVALSRLQGSLQDMLRQLDLSPGC	nM	1.83
ovine leptin L39A/D40A/F41A/I42A mutant (ligand, also called L39A/D40A/F41A/I42A (ovine)) VSIRKVQDDTKTLIKTIVTRINDISHTQSVSSKQRVTGAAAAPGLHPLLSLSKMDQTLAIYQQILASLPSRNVIQISNDLENLRDLLHLLAASKSCPLPQVRALESLESLGVVLEASLYSTEVVALSRLQGSLQDMLRQLDLSPGC	nM	1.83
human leptin L39A/D40A/F41A mutant (ligand, Expressed with an extra Met-Ala at the N-terminus, Met removed; also called L39A/D40A/F41A (human)) VPIQKVQDDTKTLIKTIVTRINDISHTQSVSSKQKVTGAAAIPGLHPILTLSKMDQTLAVYQQILTSMPSRNVIRISNDLENLRDLLHVLAFSKSCHLPWASGLETLDSLGGVLEASGYSTEVVALSRLQGSLQDMLWQLDLSPGC	nM	5.21
ovine leptin F41A/I42A mutant (ligand, also called F41A/I42A (ovine)) VSIRKVQDDTKTLIKTIVTRINDISHTQSVSSKQRVTGLDAAPGLHPLLSLSKMDQTLAIYQQILASLPSRNVIQISNDLENLRDLLHLLAASKSCPLPQVRALESLESLGVVLEASLYSTEVVALSRLQGSLQDMLRQLDLSPGC	nM	3.44

// moving on: another record for IC50
Entry ovine leptin L39A/D40A/F41A mutant (ligand, also called L39A/D40A/F41A (ovine)) VSIRKVQDDTKTLIKTIVTRINDISHTQSVSSKQRVTGAAAIPGLHPLLSLSKMDQTLAIYQQILASLPSRNVIQISNDLENLRDLLHLLAASKSCPLPQVRALESLESLGVVLEASLYSTEVVALSRLQGSLQDMLRQLDLSPGC — recorded IC50 = 2.2
